ASSAYED SYSTEM: Mot3 (UniProt P54785)
Sequence: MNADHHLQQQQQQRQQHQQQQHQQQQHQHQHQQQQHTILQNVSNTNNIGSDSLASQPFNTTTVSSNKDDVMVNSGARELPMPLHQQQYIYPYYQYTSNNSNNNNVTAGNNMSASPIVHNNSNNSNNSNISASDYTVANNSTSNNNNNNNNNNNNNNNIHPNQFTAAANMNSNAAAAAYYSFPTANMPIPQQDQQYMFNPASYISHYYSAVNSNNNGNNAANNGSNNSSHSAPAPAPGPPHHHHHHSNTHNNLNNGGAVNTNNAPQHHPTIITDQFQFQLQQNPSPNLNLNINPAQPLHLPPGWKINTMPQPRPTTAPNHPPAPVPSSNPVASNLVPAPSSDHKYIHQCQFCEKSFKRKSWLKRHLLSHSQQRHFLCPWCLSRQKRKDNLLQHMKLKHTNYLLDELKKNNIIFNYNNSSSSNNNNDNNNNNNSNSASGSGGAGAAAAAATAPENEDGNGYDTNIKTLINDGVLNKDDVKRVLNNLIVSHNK
ASSAY DETAILS: PBM E-score (8-mer binding enrichment) (E-score (-0.5 to 0.5)); higher = stronger / more preferred TF binding
SETTINGS: protein concentration: 200 nM; construct: GST-full length
In all, about 33,000 sequences were measured (“E-score (-0.5 to 0.5)”: median about -0.035, highest 2% from about 0.34 on). Shown is part of a subset that was picked to be rich in the highest values.
Rule: yes (1) for PBM E-score not less than 0.1, no (0) for anything less.

INSERT INTO measurements (primary_sequence, assigned_category) VALUES
  ('CGGAGGCC', 'no (0)'),
  ('CAAGGTAC', 'yes (1)'),
  ('GACACATC', 'no (0)'),
  ('GAAGGTGC', 'yes (1)'),
  ('GGGAGGAA', 'no (0)'),
  ('GGGAGGGA', 'no (0)'),
  ('ATAAAGGC', 'yes (1)'),
  ('AAAGGTAA', 'yes (1)'),
  ('CTAAAGGA', 'yes (1)'),
  ('ATTAAGGC', 'yes (1)'),
  ('CGATCAAC', 'no (0)'),
  ('AAAGGTAG', 'no (0)'),
  ('GCATAGGC', 'yes (1)');
